# key: entry, value: apparent KD of MS2 coat protein
# Tested on: MS2 coat protein
# experiment-notes: apparent KD of MS2 coat protein; designed switch direction (-1 OFF switch, 1 ON switch): -1; higher = weaker reporter binding
# cond: input ligand: none
endpoint-name: apparent KD of MS2 coat protein (nM)

• AUUGGGUGAGGAUAUCCAUCUGGAUCAGACUAGAUCCUGAUGGAGAAGGCACAUGAGGAUCACCCAUGUGAGUU [Eli 4x 4.34] (Eterna round: R97, puzzle: Exclusion 4) = 95.6
• GAAUGAGAGCAGGAUAUCUUAUAAAUGUAUGAAAGAGAAGGGCUCACAUGAGGAUCACCCAUGUGGUCCUAGAC [jl-ex6-4.72 jandersonlee mod] (Eterna round: R97, puzzle: Exclusion 6) = 40.1
• CGCUGGACAGGAUAUGUUCUUGGGCACUUGAGGAUCACCCAAGUCAUCGAGACAACAGGCACAGAAGGGUUUAUGG [salish99_ex5_r4_024] (Eterna round: R97, puzzle: Exclusion 5) = 38.4
• UACAUGAGGAUCACCCAUGUUUUGUCGUGUAUGGUAUUUAUCUAGGAUAUCAAUUUGGUUAUUUAUGAGAAGGAGAAUAUUAAU [JMF's solution 66] (Eterna round: R96, puzzle: Exclusion NG 3) = 37.2
• GCAGCAAUCUCAAUUAAAACCACAUGAGGAUCACCCAUGUCUCAGGAUAUGGUCUGGAUUACAGGCCAGAAGGGAGAAAGCUGC [Eli exng3 - 053] (Eterna round: R96, puzzle: Exclusion NG 3) = 13
